For each record, write down the corresponding pIC50.
tested.system: ACSS2 (Homo sapiens)
Sequence (Q9NR19 whole entry): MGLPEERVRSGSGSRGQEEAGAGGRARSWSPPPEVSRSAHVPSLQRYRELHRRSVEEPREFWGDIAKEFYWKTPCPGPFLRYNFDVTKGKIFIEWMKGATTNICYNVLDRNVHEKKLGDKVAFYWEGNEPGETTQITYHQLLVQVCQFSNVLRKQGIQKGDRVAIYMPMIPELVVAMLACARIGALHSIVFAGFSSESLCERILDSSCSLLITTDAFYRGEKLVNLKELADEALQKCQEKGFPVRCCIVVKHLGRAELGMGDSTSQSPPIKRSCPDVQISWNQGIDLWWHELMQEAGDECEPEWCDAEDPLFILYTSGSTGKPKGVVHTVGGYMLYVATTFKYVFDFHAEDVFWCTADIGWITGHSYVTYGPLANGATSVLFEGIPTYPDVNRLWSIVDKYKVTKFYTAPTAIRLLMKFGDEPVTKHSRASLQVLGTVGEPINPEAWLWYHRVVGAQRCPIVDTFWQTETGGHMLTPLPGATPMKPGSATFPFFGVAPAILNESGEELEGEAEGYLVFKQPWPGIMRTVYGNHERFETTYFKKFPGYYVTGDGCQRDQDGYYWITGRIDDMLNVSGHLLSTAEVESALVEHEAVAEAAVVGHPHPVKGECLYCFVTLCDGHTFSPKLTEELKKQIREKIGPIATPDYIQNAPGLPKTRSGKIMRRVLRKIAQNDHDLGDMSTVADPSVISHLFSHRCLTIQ
test: biochemical;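 note: Cell-free human ACSS2 enzyme reaction with acetate, CoA and ATP, 90 min at 37 C, coupled to pyrophosphatase, phosphate release detected by Biomol Green absorbance at 620 nm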
pIC50: −log10 of the molar value.

// below: answered compounds
compound	pIC50
CCC(F)(F)c1cccc(NC(=O)C2C(=O)N(c3ccc(OC(F)F)cn3)N=C2C)c1 (centres unmarked) [compound 383]	8.22 to 11.00
CC1=NN(c2ccccc2)C(=O)C1C(=O)Nc1cccc(CN)c1 (centres unmarked) [compound 223]	4.00 to 6.00
CC1=NN(c2ccc(Cc3ccccc3)c(-c3ccccc3)c2)C(=O)C1C(=O)Nc1cccc(C(C)(F)F)c1 (centres unmarked) [compound 375]	8.22 to 11.00
CC1=NN(c2ccc3[nH]cnc3c2)C(=O)C1C(=O)Nc1cccc(C(C)(F)F)c1 (centres unmarked) [compound 405]	7.00 to 8.22
CC1=NN(c2cccc(C#CCNC(=O)CCCC(=O)Nc3ccc4c(c3)C(=O)N(C3CCC(=O)NC3=O)C4=O)c2)C(=O)C1C(=O)Nc1cccc(C(C)(F)F)c1 (centres unmarked) [compound 382]	8.22 to 11.00

Working through the 7 compounds below one at a time, give pIC50 for each.
1. CCc1cccc(NC(=O)C2C(=O)N(c3ccccc3)N=C2C(C)C)c1 (centres unmarked) [compound 128]
2. COc1ccc(N2N=C(C)C(C(=O)Nc3cccc(C(C)(F)F)c3)C2=O)cc1-c1nccn1C (centres unmarked) [compound 300]
3. CC1=NN(c2ccccc2)C(=O)C1C(=O)N[C@@H](C)C(=O)O (some centres unmarked) [compound 218]
4. COc1cccc(NC(=O)C2C(=O)N(c3ccccc3)N=C2C)c1 (centres unmarked) [compound 211]
5. CC1=NN(c2ccccc2)C(=O)C1C(=O)Nc1cccc(C(C)C)c1 (centres unmarked) [compound 100]
6. CC1=NN(c2ccc(OC(F)F)cc2)C(=O)C1C(=O)N(C)c1cc(Cl)c(F)c(Cl)c1 (centres unmarked) [compound 391]
7. COc1ccc(N2N=C(C)C(C(=O)Nc3cccc(-c4ncc[nH]4)c3)C2=O)cc1 (centres unmarked) [compound 255]

[reply]
4.00 to 6.00
8.22 to 11.00
4.00 to 6.00
7.00 to 8.22
6.00 to 7.00
6.00 to 7.00
7.00 to 8.22
